# Human GLP-1 R activity (cAMP release), % activity with respect to control values compiled below
- SYSTEM_NAME: Human GLP-1 receptor (Homo sapiens)
- Construct: The full-length cDNA was cloned in pcDNA3.1(+); expressed in transfected cells
- RUN_DESCRIPTION: In vitro Human GLP-1 R agonist activity (cyclic AMP determination) in CHO/human GLP1R cells
- Format: cell-based
- MEASUREMENT_CONTEXT: 1 μM test compound
MEASURED_ATTRIBUTE: Human GLP-1 R activity (cAMP release), % activity with respect to control (%)

COMPOUND	REPORTED_MEASUREMENT
CCc1cc(OC)ccc1-c1ccc(CC(NC(=O)[C@H](CC(=O)O)NC(=O)[C@H](CO)NC(=O)[C@@H](NC(=O)C(C)(Cc2ccccc2F)NC(=O)[C@@H](NC(=O)CNC(=O)[C@H](CC(C(F)(F)F)C(F)(F)F)NC(=O)C(C)(C)NC(=O)[C@H](Cc2c[nH]cn2)NC(C)=O)[C@@H](C)O)[C@@H](C)O)C(=O)NC(CCCc2ccccc2)C(N)=O)cc1 (single isomer, unassigned) [compound 210]	99
CCc1cc(OC)ccc1-c1ccc(CC(NC(=O)[C@H](CC(=O)O)NC(=O)[C@H](CO)NC(=O)[C@@H](NC(=O)[C@H](Cc2ccccc2)NC(=O)[C@@H](NC(=O)CNC(=O)C(CCC#N)NC(=O)C(C)(C)NC(=O)[C@@H](N)Cc2c[nH]cn2)[C@@H](C)O)[C@@H](C)O)C(=O)NC(CCCc2ccccc2F)C(N)=O)cc1 (single isomer, unassigned) [compound 77]	95
CCc1cc(OC)ccc1-c1ccc(CC(NC(=O)[C@H](CC(=O)O)NC(=O)[C@H](CO)NC(=O)[C@@H](NC(=O)C(C)(Cc2ccccc2F)NC(=O)[C@@H](NC(=O)CNC(=O)C(CCC#N)NC(=O)C(C)(C)NC(=O)[C@@H](N)Cc2c[nH]cn2)[C@@H](C)O)[C@H](C)O)C(=O)NC(CCCc2ccccc2F)C(N)=O)cc1 (single isomer, unassigned) [compound 120]	99
CCc1cc(OC)ccc1-c1ccc(CC(NC(=O)[C@H](CC(=O)O)NC(=O)[C@H](CO)NC(=O)[C@@H](NC(=O)C(C)(Cc2ccccc2F)NC(=O)[C@@H](NC(=O)CNC(=O)C(CCC#N)NC(=O)C(C)(C)NC(=O)[C@@H](N)Cc2c[nH]cn2)[C@H](C)O)[C@H](C)O)C(=O)NC(CCCc2ccccc2)C(N)=O)cc1 (single isomer, unassigned) [compound 114]	99
CCc1cc(OC)ccc1-c1ccc(CC(CNC(CCCc2ccccc2F)C(N)=O)NC[C@H](CC(=O)O)NC(=O)[C@H](CO)NC(=O)[C@@H](NC(=O)C(C)(Cc2ccccc2F)NC(=O)[C@@H](NC(=O)CNC(=O)C(CCC#N)NC(=O)C(C)(C)NC(=O)[C@@H](N)Cc2c[nH]cn2)[C@H](C)O)[C@H](C)O)cc1 (single isomer, unassigned) [compound 204]	99
CCc1cc(OC)ccc1-c1ccc(CC(NC(=O)[C@H](CC(=O)O)NC(=O)[C@H](CO)NC(=O)[C@@H](NC(=O)C(C)(Cc2ccccc2F)NC(=O)[C@@H](NC(=O)CNC(=O)C(CCC#N)NC(=O)C(C)(C)NC(=O)[C@@H](N)Cc2c[nH]cn2)[C@H](C)O)[C@H](C)O)C(=S)NC(CCCc2ccccc2F)C(N)=O)cc1 (single isomer, unassigned) [compound 168]	99
CCc1cc(OC)ccc1-c1ccc(CC(NC(=O)[C@H](CC(=O)O)NC(=O)[C@H](CO)NC(=O)[C@@H](NC(=O)C(C)(Cc2ccccc2F)NC(=O)[C@@H](NC(=O)CNC(=O)C(CCC#N)NC(=O)C(C)(C)NC(=O)[C@H](Cc2c[nH]cn2)NC(C)=O)[C@@H](C)O)[C@@H](C)O)C(=O)NC(CCCc2ccccc2F)C(N)=O)cc1 (single isomer, unassigned) [compound 207]	96
CCc1cc(OC)ccc1-c1ccc(CC(NC(=O)[C@H](CC(=O)O)NC(=O)[C@H](CO)NC(=O)[C@@H](NC(=O)[C@H](Cc2ccccc2)NC(=O)[C@@H](NC(=O)CNC(=O)[C@H](CCC(N)=O)NC(=O)C(C)(C)NC(=O)[C@@H](N)Cc2c[nH]cn2)[C@@H](C)O)[C@@H](C)O)C(=O)NC(CCCc2cccc(Cl)c2)C(N)=O)cc1 (single isomer, unassigned) [compound 19]	99
CCc1cc(OC)ccc1-c1ccc(CC(NC(=O)[C@H](CC(=O)O)NC(=O)[C@H](CO)NC(=O)[C@@H](NC(=O)C(C)(Cc2ccccc2F)NC(=O)[C@@H](NC(=O)CNC(=O)C(CCC#N)NC(=O)C(C)(C)NC(=O)[C@@H](N)Cc2c[nH]cn2)[C@H](C)O)[C@@H](C)O)C(=O)NC(CCCc2ccccc2)C(N)=O)cc1 (single isomer, unassigned) [compound 110]	94
CCc1cc(OC)ccc1-c1ccc(CC(NC(=O)[C@H](CC(=O)O)NC(=O)[C@H](CO)NC(=O)[C@@H](NC(=O)[C@H](Cc2ccccc2)NC(=O)[C@@H](NC(=O)CNC(=O)C(CCC#N)NC(=O)C(C)(C)NC(=O)[C@@H](N)Cc2c[nH]cn2)[C@@H](C)O)[C@@H](C)O)C(=O)NC(CCCc2ccccc2)C(N)=O)cc1 (single isomer, unassigned) [compound 29]	99
CCc1cc(OC)ccc1-c1ccc(CC(NC(=O)[C@H](CC(=O)O)NC(=O)[C@H](CO)NC(=O)[C@@H](NC(=O)C(C)(Cc2ccccc2F)NC(=O)[C@@H](NC(=O)CNC(=O)C(CCC#N)NC(=O)C(C)(C)NC(=O)[C@H](Cc2c[nH]cn2)NC(=O)OC)[C@@H](C)O)[C@@H](C)O)C(=O)NC(CCCc2ccccc2)C(N)=O)cc1 (single isomer, unassigned) [compound 206]	95

* * *

- SYSTEM_NAME: Human GLP-1 receptor (Homo sapiens, UniProt P43220)
- Construct: The full-length cDNA was cloned in pcDNA3.1(+); expressed in transfected cells
- Sequence (P43220 24-463): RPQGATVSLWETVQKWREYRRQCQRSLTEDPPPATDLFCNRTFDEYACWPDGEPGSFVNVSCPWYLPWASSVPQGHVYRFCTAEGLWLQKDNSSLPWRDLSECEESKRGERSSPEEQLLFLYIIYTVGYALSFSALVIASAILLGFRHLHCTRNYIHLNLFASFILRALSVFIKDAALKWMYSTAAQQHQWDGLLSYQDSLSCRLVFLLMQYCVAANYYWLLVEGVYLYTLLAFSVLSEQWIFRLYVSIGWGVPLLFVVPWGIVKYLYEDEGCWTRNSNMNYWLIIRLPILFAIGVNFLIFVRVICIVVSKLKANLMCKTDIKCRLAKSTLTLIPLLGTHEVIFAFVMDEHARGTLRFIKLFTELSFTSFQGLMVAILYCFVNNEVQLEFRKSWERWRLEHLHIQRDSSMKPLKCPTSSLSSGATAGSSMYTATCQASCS
- RUN_DESCRIPTION: In vitro Human GLP-1 R agonist activity (cyclic AMP determination) in CHO/human GLP1R cells
- Assay type: cell-based
- MEASUREMENT_CONTEXT: 1 nM test compound
Attribute: Human GLP-1 R activity (cAMP release), % activity with respect to control
MEASURED_ATTRIBUTE: Human GLP-1 R activity (cAMP release), % activity with respect to control

MOLECULE	REPORTED_MEASUREMENT
CCc1cc(OC)ccc1-c1ccc(CC(NC(=O)[C@H](CC(=O)O)NC(=O)[C@H](CO)NC(=O)[C@@H](NC(=O)[C@H](Cc2ccccc2)NC(=O)[C@@H](NC(=O)CNC(=O)C(CCC#N)NC(=O)C(C)(C)NC(=O)[C@@H](N)Cc2c[nH]cn2)[C@@H](C)O)[C@@H](C)O)C(=O)NC(CCCc2cc(C)cc(C)c2)C(N)=O)cc1 (single isomer, unassigned) [compound 30]	38 ± 0.12%
CCc1cc(OC)ccc1-c1ccc(CC(NC(=O)[C@H](CC(=O)O)NC(=O)[C@H](CO)NC(=O)[C@@H](NC(=O)C(C)(Cc2ccccc2F)NC(=O)[C@@H](NC(=O)CNC(=O)C(CCC#N)NC(=O)C(C)(C)NC(=O)[C@@H](N)Cc2c[nH]cn2)[C@H](C)O)[C@H](C)O)C(=S)NC(CCCc2ccccc2F)C(N)=O)cc1 (single isomer, unassigned) [compound 168]	96 ± 0.09%
CCc1cc(OC)ccc1-c1ccc(CC(C(=O)N(C)C(CCCc2ccccc2F)C(N)=O)N(C)C(=O)[C@H](CC(=O)O)NC(=O)[C@H](CO)NC(=O)[C@@H](NC(=O)C(C)(Cc2ccccc2F)NC(=O)[C@@H](NC(=O)CNC(=O)C(CCC#N)NC(=O)C(C)(C)NC(=O)[C@@H](N)Cc2c[nH]cn2)[C@H](C)O)[C@H](C)O)cc1 (single isomer, unassigned) [compound 144]	55 ± 0.16%

* * *

Measured blood glucose levels by item
- System: C57BL/6J mice (mild hyperglycemic)
- RUN_DESCRIPTION: In vivo glucose reduction, acute single dose 120-min time-course, i.p. route
- Set-up: species or system mouse; unit not given here
- MEASUREMENT_CONTEXT: male C57BL/6J mice, 30 nM/kg i.p., 0 min

MOLECULE	SYSTEM_NAME	blood glucose levels
CCc1cc(OC)ccc1-c1ccc(CC(NC(=O)[C@H](CC(=O)O)NC(=O)[C@H](CO)NC(=O)[C@@H](NC(=O)[C@H](Cc2ccccc2)NC(=O)[C@@H](NC(=O)CNC(=O)C(CCC#N)NC(=O)C(C)(C)NC(=O)[C@@H](N)Cc2c[nH]cn2)[C@@H](C)O)[C@@H](C)O)C(=O)NC(CCCc2ccccc2)C(N)=O)cc1 (single isomer, unassigned)	C57BL/6J mice (mild hyperglycemic)	180 ± 1.2
CCc1cc(OC)ccc1-c1ccc(CC(C(=O)N(C)C(CCCc2ccccc2F)C(N)=O)N(C)C(=O)[C@H](CC(=O)O)N(C)C(=O)[C@H](CO)NC(=O)[C@@H](NC(=O)C(C)(Cc2ccccc2F)NC(=O)[C@@H](NC(=O)CNC(=O)C(CCC#N)NC(=O)C(C)(C)NC(=O)[C@@H](N)Cc2c[nH]cn2)[C@H](C)O)[C@H](C)O)cc1 (single isomer, unassigned)	C57BL/6J mice (mild hyperglycemic)	180 ± 3.2
CCc1cc(OC)ccc1-c1ccc(CC(NC(=O)[C@H](CC(=O)O)NC(=O)[C@H](CO)NC(=O)[C@@H](NC(=O)[C@H](Cc2ccccc2)NC(=O)[C@@H](NC(=O)CNC(=O)C(CCC#N)NC(=O)C(C)(C)NC(=O)[C@@H](N)Cc2c[nH]cn2)[C@@H](C)O)[C@@H](C)O)C(=O)NC(CCCc2cc(C)cc(C)c2)C(N)=O)cc1 (single isomer, unassigned)	C57BL/6J mice (mild hyperglycemic)	183 ± 3.6
